Hey, just so you know, these numbers are from patent US20090291081A1.

Below: a set of entries, each annotated with reported MRC5 ND50.
Target: T1, human IL-1α (human, UniProt P01583 113-271)
T1 sequence (looked up): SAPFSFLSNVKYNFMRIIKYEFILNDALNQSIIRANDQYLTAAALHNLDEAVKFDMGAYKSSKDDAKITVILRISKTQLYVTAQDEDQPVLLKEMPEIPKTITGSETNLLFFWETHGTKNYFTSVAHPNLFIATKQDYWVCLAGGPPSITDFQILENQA
Test: cell-based or functional assay
Just the number please, in nM, no unit attached.

Examples with their reported MRC5 ND50 follow.
The binder ABT1-98 (other, VH dAb) VH: EVQLLESGGGLVQPGGSLRLSCAASGFTFDGYIMSWVRQAPGKGLEWVSTISPLGSVTYYADSVKGRFTISRDNSKNTLYLQMNSLRAEDTAVYYCAKKGPWFDYWGQGTLVTVSS showed MRC5 ND50 equal to 30

The binder ABT1-96 (other, VH dAb) VH: EVQLLESGGGLVQPGGSLRLSCAASGFTFNQYNMFWVRQAPGKGLEWVSVISGSGRFTYYADSVKGRFTISRDNSKNTLYLQMNSLRAEDTAVYYCAKGWWRRDPPFDYWGQGTLVTVSS showed MRC5 ND50 equal to 11

The binder ABT1-122 (other, VK dAb) VL: DIQMTQSPSSLSASVGDRVTITCRASQPIWTELNWYQQKPGKAPKLLIYGSSSLQSGVPSRFSGSGSGTDFTLTISSLQPEDFATYYCQQFAYFPATFGQGTKVEIKR showed MRC5 ND50 equal to 50

Now, please, on to the next binder.
The binder ABT1-141 (other, VK dAb) VL: DIQMTQSPSSLSASVGDRVTITCRASQWIQKQLAWYQQKPGKAPKLLIYSSSYLQSGVPSRFSGSGSGTDFTLTISSLQPEDFATYYCQQHLRVPFTFGQGTKVEIKR showed MRC5 ND50 equal to 50
